# System: OVCAR3 cells
# Procedure summary: Cell proliferation activity test (CyQUANT Direct)
# Type: cell-based
# Assay conditions: Homo sapiens, OVCAR-3, 72 h, 3 days, 0.2% DMSO, CyQUANT fluorescence
Readout type: log10 IC50 (log10 of the value in nM)
On a log10 scale: recorded IC50, unit nM.

Consider the following illustrative entries.
Cc1cc2nc(n1)N1CCC(F)(F)[C@@H](CCCC3CCN(CC3)c3cc(NS(=O)(=O)CCO)c4c(c3C(=O)N2)CCC4=O)C1 [Example 6] = 1.61
Cc1cc2nc(n1)N1CCC(F)(F)C(CCCc3ccc(cc3)-c3cc(NS(=O)(=O)CCO)ccc3C(=O)N2)C1 (stereo not shown) [Example 44] = 1.43

## Task Could you tell me which log10 IC50 is on file for Cc1cc2nc(n1)N1CCC(F)(F)C(CCCc3ccc(nc3)-c3cc(NS(=O)(=O)CCO)ccc3C(=O)N2)C1 (stereo not shown) ?
## Result 3.03

## Task Could you tell me which log10 IC50 is on file for Cc1cc2nc(n1)N1CCC(F)(F)[C@@H](CCCC3CCN(CC3)c3cc(NS(=O)(=O)CCO)ccc3-n3cc-2nn3)C1 ?
## Result 1.78

## Task Could you tell me which log10 IC50 is on file for Cc1cc2nc(n1)N1CCC(F)(F)[C@@H](CCCC3CCN(CC3)c3cc(NS(=O)(=O)CCO)c4c(c3C(=O)N2)CCC4=O)C1 [Example 10] ?
## Result 1.56

## Task Could you tell me which log10 IC50 is on file for CON(C)C(=O)c1cc2c(cc1NS(=O)(=O)CCO)N1CCC(C/C=C/C3CN(CCC3(F)F)c3nc(C)cc(n3)-c3cn-2nn3)CC1 (stereo not shown) ?
## Result 2.13

## Task Could you tell me which log10 IC50 is on file for Cc1cc2nc(n1)N1CCC(F)(F)C(CCc3ccc(cc3)-c3cc(NS(=O)(=O)CCO)ccc3C(=O)N2)C1 (stereo not shown) ?
## Result 1.89

## Task Could you tell me which log10 IC50 is on file for Cc1cc2nc(n1)N1CCC(F)(F)C(/C=C/CC3CCN(CC3)c3cc(NS(=O)(=O)CCO)c(C(=O)C4CC4)cc3-n3cc-2nn3)C1 (stereo not shown) ?
## Result 2.23

## Task Could you tell me which log10 IC50 is on file for Cc1cc2nc(n1)N1CCC(F)(F)C(CCCc3ccc(cc3)-c3cc(NS(=O)(=O)CCO)c(F)cc3C(=O)N2)C1 (stereo not shown) ?
## Result 1.66

## Task Could you tell me which log10 IC50 is on file for COc1cc2nc(n1)N1CCC(F)(F)C(/C=C\CC3CCN(CC3)c3cc(NS(=O)(=O)CCO)c4c(c3C(=O)N2)CCC4=O)C1 (stereo not shown) ?
## Result 1.62

## Task Could you tell me which log10 IC50 is on file for Cc1cc2nc(n1)N1CCC(F)(F)C(/C=C\c3ccc(cc3)-c3cc(NS(=O)(=O)CCO)ccc3C(=O)N2)C1 (stereo not shown) ?
## Result 3.41

====

IC50 overview
# Tested on: HT29 cells
# Procedure summary: CyQuant cell proliferation activity test
# Type: cell-based
# Assay conditions: HT29 at 2000 cells per well, 3 days, 0.2% DMSO, XLFIT, read-out: HT-29 IC50
Give the number first and the unit second.

Cc1cc2nc(n1)N1CCC(F)(F)C(C=CCC3CCN(CC3)c3cc(NS(=O)(=O)CCO)c4c(c3C(=O)N2)CNC4=O)C1 (stereo not drawn) = 0.095 µM
Cc1cc2nc(n1)N1CCC(F)(F)C(/C=C/CC3CCN(CC3)c3cc(NS(=O)(=O)CCO)c4ccccc4c3C(=O)N2)C1 (single isomer, unassigned) [Example 1D] = 0.137 µM

Okay, now this compound:
## Task Could you tell me which IC50 is on file for COc1cc2nc(n1)N1CCC(F)(F)C(CCCc3ccc(cc3)-c3cc(NS(=O)(=O)CCO)ccc3C(=O)N2)C1 (single isomer, unassigned) [Example 51B] ?
## Result 0.074 µM
